The next entries give measured pIC50 for PDE1A (Homo sapiens, UniProt P54750).
Answer as the number alone; pIC50 is minus log10 of concentration in mol/L.

[[record]]
smiles_str = "CC[C@@]12C=C(COCc3ccc(F)cc3)n3c4c(c5ccccc53)CCN(CCC1)[C@H]42"
recorded_number = 4.76

[[record]]
smiles_str = "CC[C@@]12C=C(COCc3ccccc3)n3c4c(c5ccccc53)CCN(CCC1)[C@H]42"
recorded_number = 4.72

[[record]]
smiles_str = "CC[C@@]12C=C(COCc3cccc(Cl)c3)n3c4c(c5ccccc53)CCN(CCC1)[C@H]42"
recorded_number = 4.14

[[record]]
smiles_str = "CC[C@@]12C=C(COCc3cccc(F)c3)n3c4c(c5ccccc53)CCN(CCC1)[C@H]42"
recorded_number = 4.59

[[record]]
smiles_str = "CC[C@@]12C=C(COCc3ccccc3C#N)n3c4c(c5ccccc53)CCN(CCC1)[C@H]42"
recorded_number = 4.35


So what's the measured pIC50 for this one? `CC[C@@]12C=C(COCc3cc(C)cc(C)c3)n3c4c(c5ccccc53)CCN(CCC1)[C@H]42` 5.00

Entry `CCOC(=O)C1=C[C@]2(CC)CCCN3CCc4c(n1c1ccccc41)[C@@H]32` please 4.76

Next up: `CC[C@@]12C=C(COCc3cccc4ccccc34)n3c4c(c5ccccc53)CCN(CCC1)[C@H]42` 4.27
